target: rat NaPi-2b (Rattus norvegicus, UniProt Q9JJ09); experiment: Sodium-dependent phosphate uptake of Xenopus oocytes which expressed NaPi-2b (32P); conditions: Xenopus oocytes expressing rat NaPi-2b, 32P radioactive phosphorus; read-out: IC50 (phosphate uptake inhibitory activity)
Listed below: IC50 values for each entry.
State just the number; it will be interpreted in µM.

{"COMPOUND": "O=C(Nc1ccc(Cl)cc1C(=O)N/N=C/c1ccc(O)cc1)c1cccc(CN2CCC(N3CCCCC3)CC2)c1 [Compound 377]", "UNIT ABBREV": "µM", "IC50": 9.65}
{"COMPOUND": "Cc1cccc(/C=N/NC(=O)c2cc(Br)ccc2NC(=O)c2ccno2)c1 [Compound 511]", "UNIT ABBREV": "µM", "IC50": 2.16}
{"COMPOUND": "Cc1ccc(/C=N/NC(=O)c2c(NC(=O)c3cccc(CN4CCC(CO)CC4)c3)sc3c2CCCC3)cc1C [Compound 639]", "UNIT ABBREV": "µM", "IC50": 1.84}
{"COMPOUND": "COc1ccc(/C=N/NC(=O)c2cc(N3CCCCC3)ccc2NC(=O)c2cccc(CN3CCN(CCO)CC3)c2)cc1 [Compound 869]", "UNIT ABBREV": "µM", "IC50": 6.68}
{"COMPOUND": "CCN(CC)CCN(Cc1cccc(C(=O)Nc2sc3c(c2C(=O)N/N=C/c2ccc(C)c(C)c2)CCCC3)c1)C(C)=O [Compound 652]", "UNIT ABBREV": "µM", "IC50": 0.72}

Reported IC50 for COc1cccc(/C=N/NC(=O)c2cc(Br)ccc2NC(=O)c2ccc(CN3CCC(CCO)CC3)cc2)c1 [Compound 746] was 16.8

Reported IC50 for CCN(CC)CCN(CCN(CC)CC)Cc1cccc(C(=O)Nc2ccc(N3CCCCC3)cc2C(=O)N/N=C/c2ccc(C)c(C)c2)c1 [Compound 905] was 1.18

Reported IC50 for CCN(CC)CCN(C)Cc1cccc(C(=O)Nc2sccc2C(=O)N/N=C/c2ccc(F)cc2)c1 [Compound 666] was 31.2

====

Molecular target: rat NaPi-2b (Rattus norvegicus, UniProt Q9JJ09)
Sequence (Q9JJ09 1-695): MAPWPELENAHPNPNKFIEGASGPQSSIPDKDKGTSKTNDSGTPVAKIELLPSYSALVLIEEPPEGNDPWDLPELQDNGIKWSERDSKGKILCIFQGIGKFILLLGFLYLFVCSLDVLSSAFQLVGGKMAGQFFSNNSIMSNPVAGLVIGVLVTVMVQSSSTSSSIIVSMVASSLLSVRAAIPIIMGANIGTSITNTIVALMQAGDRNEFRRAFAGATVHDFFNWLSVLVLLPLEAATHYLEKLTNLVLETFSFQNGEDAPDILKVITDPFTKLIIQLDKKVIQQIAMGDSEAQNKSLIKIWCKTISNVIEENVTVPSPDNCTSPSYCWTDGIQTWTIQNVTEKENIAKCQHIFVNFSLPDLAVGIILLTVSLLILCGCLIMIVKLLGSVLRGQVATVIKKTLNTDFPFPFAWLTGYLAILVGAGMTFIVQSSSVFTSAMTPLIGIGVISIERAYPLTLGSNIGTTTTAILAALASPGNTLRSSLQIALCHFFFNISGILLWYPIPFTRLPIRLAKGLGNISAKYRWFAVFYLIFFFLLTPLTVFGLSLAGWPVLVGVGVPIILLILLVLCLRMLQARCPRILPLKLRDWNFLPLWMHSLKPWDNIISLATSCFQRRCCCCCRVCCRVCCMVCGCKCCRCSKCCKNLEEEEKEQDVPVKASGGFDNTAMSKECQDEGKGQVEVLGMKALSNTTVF
Assay: Sodium-dependent phosphate uptake of Xenopus oocytes which expressed NaPi-2b (32P)
Conditions: Xenopus oocytes expressing rat NaPi-2b, 32P radioactive phosphorus; read-out: IC50 (phosphate uptake inhibitory activity)
Listed below: IC50 values for each entry.
State just the number; it will be interpreted in µM.

{"MOLECULE": "COc1ccc(C(=O)Nc2ccc(Cl)cc2C(=O)N/N=C/c2ccc(F)cc2)cc1OC", "IC50, µM": 0.89}
{"MOLECULE": "Cc1cccc(/C=N/NC(=O)c2cc(Br)ccc2NC(=O)c2ccc(CN3CCC(CO)CC3)cc2)c1", "IC50, µM": 7.69}
{"MOLECULE": "Cc1ccc(/C=N/NC(=O)c2cc(OCCN3CCCCC3)ccc2NC(=O)c2cccc(CSCCO)c2)cc1", "IC50, µM": 14.7}

Reported IC50 for `CCN(CC)CCN(C)Cc1cccc(C(=O)Nc2ccc(N3CCCCC3)cc2C(=O)N/N=C/c2cccc(F)c2)c1` was 0.52

Reported IC50 for `COc1ccc(C(=O)Nc2ccccc2C(=O)N/N=C/c2ccc(O)c(C)c2)cc1OC` was 8.21

Reported IC50 for `CCN(CC)CCN(C)Cc1cccc(C(=O)Nc2ccc(Cl)cc2C(=O)N/N=C/c2ccc(C)cc2)c1` was 1.04

Reported IC50 for `O=C(Nc1ccc(Br)cc1C(=O)N/N=C/c1ccc(F)cc1)c1cccnc1` was 7.4

Reported IC50 for `O=C(Nc1ccc(Cl)cc1C(=O)N/N=C/c1cccc(OCCO)c1)c1ccncc1` was 8.96

Reported IC50 for `Cc1ccc(/C=N/NC(=O)c2c(NC(=O)c3cccc(CN4CCC(CO)CC4)c3)sc3ccccc23)cc1C` was 3.62

Reported IC50 for `Cc1ccc(/C=N/NC(=O)c2cc(Cl)ccc2NC(=O)c2cccnc2)cc1C` was 19.4

Reported IC50 for `COc1ccc(/C=N/NC(=O)c2cc(OCCCCF)ccc2NC(=O)c2cccc(CSCCO)c2)cc1` was 1.96

Reported IC50 for `Cc1ccc(/C=N/NC(=O)c2cc(Br)ccc2NC(=O)c2cccc(CSc3nc[nH]n3)c2)cc1C` was 0.43

Reported IC50 for `CCN(CC)CCN(C)Cc1cccc(C(=O)Nc2ccc(Cl)cc2C(=O)N/N=C/c2cccc(O)c2)c1` was 6.45

Reported IC50 for `CCN(CCO)Cc1ccc(C(=O)Nc2ccc(Cl)cc2C(=O)N/N=C/c2cccc(F)c2)cc1` was 22.2

Reported IC50 for `CCN(CCO)Cc1ccc(C(=O)Nc2ccc(Cl)cc2C(=O)N/N=C/c2cccc(O)c2)cc1` was 32.4

Reported IC50 for `C/C(=N\NC(=O)c1cc(Cl)ccc1NC(=O)c1cccnc1)c1ccc(C)cc1` was 11.2

Reported IC50 for `O=C(Nc1sc2c(c1C(=O)N/N=C/c1cccc(F)c1)CCCC2)c1cccc(CN2CCC(O)CC2)c1` was 3.89

Reported IC50 for `O=C(Nc1ccc(Br)cc1C(=O)N/N=C/c1ccc(F)cc1)c1cccc(CSc2nc[nH]n2)c1` was 5.04
